TARGET DESC: panel of 255 wild-type kinases (Homo sapiens, UniProt O60674)
Sequence (O60674 whole entry): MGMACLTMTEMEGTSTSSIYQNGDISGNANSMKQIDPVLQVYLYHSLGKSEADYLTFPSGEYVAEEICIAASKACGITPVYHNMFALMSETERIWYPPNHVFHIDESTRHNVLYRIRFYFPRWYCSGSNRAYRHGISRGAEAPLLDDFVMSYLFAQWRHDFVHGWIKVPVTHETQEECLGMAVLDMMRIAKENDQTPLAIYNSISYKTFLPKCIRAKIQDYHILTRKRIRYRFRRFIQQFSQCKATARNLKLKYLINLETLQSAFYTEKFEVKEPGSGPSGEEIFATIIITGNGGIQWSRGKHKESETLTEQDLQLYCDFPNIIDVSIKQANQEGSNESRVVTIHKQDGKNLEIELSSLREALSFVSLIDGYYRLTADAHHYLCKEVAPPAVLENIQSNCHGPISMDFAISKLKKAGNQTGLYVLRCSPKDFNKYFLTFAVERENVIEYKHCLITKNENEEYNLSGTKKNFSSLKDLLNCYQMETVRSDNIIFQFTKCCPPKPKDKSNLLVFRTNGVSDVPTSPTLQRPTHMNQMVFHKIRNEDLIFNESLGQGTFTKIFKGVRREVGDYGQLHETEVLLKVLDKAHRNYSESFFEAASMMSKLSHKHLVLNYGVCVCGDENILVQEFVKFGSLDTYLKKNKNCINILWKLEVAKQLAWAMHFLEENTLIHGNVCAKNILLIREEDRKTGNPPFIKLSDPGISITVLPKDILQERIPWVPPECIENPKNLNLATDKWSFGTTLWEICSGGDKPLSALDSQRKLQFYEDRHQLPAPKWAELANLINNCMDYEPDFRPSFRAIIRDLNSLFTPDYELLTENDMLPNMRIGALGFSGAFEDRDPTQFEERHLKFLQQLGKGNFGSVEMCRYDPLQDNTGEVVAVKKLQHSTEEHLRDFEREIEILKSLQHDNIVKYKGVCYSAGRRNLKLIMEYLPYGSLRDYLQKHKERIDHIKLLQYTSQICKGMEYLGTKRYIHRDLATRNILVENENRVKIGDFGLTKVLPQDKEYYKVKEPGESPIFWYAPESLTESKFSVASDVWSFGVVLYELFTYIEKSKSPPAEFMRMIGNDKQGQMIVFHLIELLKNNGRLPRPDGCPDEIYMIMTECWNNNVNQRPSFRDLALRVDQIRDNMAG
METHOD NOTES: Kinase panel profiling at 1 µmol/L (MSA or IMAP), percentage inhibition
Assay type: biochemical
ASSAY CONDITIONS: kinase JAK2; 1 µmol/L single concentration; read-out: %-inhibition at 1 µmol/L, JAK2
Quick list: inhibition at 1 µM per entry.

- COMPOUND SMILES: "COc1ccc(CN2C3CC2CN(c2ccc(-c4cc(OCC(C)(C)O)cn5ncc(C#N)c45)cn2)C3)cn1"
  inhibition at 1 µM / %: 27
- COMPOUND SMILES: "Cn1cnc2c(F)c(Nc3ccc(Br)cc3Cl)c(C(=O)NOCCO)cc21"
  inhibition at 1 µM / %: -0.0152
- COMPOUND SMILES: "COc1cc2ncnc(Nc3ccc(F)c(Cl)c3)c2cc1NC(=O)/C=C/CN1CCCCC1"
  inhibition at 1 µM / %: 0.856
- COMPOUND SMILES: "C[C@H]1Oc2cc(cnc2N)-c2c(nn(C)c2C#N)CN(C)C(=O)c2ccc(F)cc21"
  inhibition at 1 µM / %: 69
- COMPOUND SMILES: "C[C@H](Nc1ncnc2nc[nH]c12)c1cc2cccc(Cl)c2c(=O)n1-c1ccccc1"
  inhibition at 1 µM / %: 3.29
- COMPOUND SMILES: "CCc1nc(C(N)=O)c(Nc2ccc(N3CCC(N4CCN(C)CC4)CC3)c(OC)c2)nc1NC1CCOCC1"
  inhibition at 1 µM / %: 95
- COMPOUND SMILES: "CCN1C(=O)N(c2c(F)c(OC)cc(OC)c2F)Cc2cnc3[nH]c(CN4CCOCC4)cc3c21"
  inhibition at 1 µM / %: -2.85
- COMPOUND SMILES: "Cn1cnc2c(F)c(Nc3ccc(Br)cc3F)c(C(=O)NOCCO)cc21"
  inhibition at 1 µM / %: -0.409
- COMPOUND SMILES: "CCN1CCN(c2ccc(Nc3cc(N(C)C(=O)Nc4c(Cl)c(OC)cc(OC)c4Cl)ncn3)cc2)CC1"
  inhibition at 1 µM / %: 2.11
- COMPOUND SMILES: "Cc1nc(NC(=O)N2CCC[C@H]2C(N)=O)sc1-c1ccnc(C(C)(C)C(F)(F)F)c1"
  inhibition at 1 µM / %: 1.85
- COMPOUND SMILES: "Cn1cc(-c2cc3c(N4CCN(c5ncc([C@@](C)(N)c6ccc(F)cc6)cn5)CC4)ncnn3c2)cn1"
  inhibition at 1 µM / %: 52
- COMPOUND SMILES: "FC(F)(F)c1ccc(CNc2ccc(Cc3c[nH]c4ncc(Cl)cc34)cn2)cn1"
  inhibition at 1 µM / %: 35
